condition.info: mouse, in vivo
Starred links: 1 amine or outer side, 2 acyl side, 3 side chain; linkers in the order of their positions; H or OH if unused. Positions of bridges follow the written chain, without caps; N, C: chain ends. Non-standard residues stand in square brackets, D forms with d. Residues, ends and D or L forms follow the SMILES beside them. *: point of attachment. DOTA = O=C(O)CN1CCN(CC(=O)O)CCN(CC(=O)*)CCN(CC(=O)O)CC1; dPhe(4-NHCONH2) = NC(=O)Nc1ccc(C[C@@H](N)C(=O)O)cc1; X1 = NC(=O)Nc1ccc(CC(N[*:1])C(=O)[*:2])cc1; Phe(4-Cl) = N[CH](Cc1ccc(Cl)cc1)C(=O)O
quantity: Organ mass Spleen (mg)

INSERT INTO assay_data (molecule, quantitative_readout) VALUES
  ('C[C@@H](O)[C@@H]1NC(=O)[C@H](CCCCN)NC(=O)[C@@H](Cc2c[nH]c3ccccc23)NC(=O)[C@H](Cc2ccc(O)cc2)NC(=O)[C@@H](NC(=O)[C@@H](Cc2ccccc2)NC(=O)CN2CCN(CC(=O)O)CCN(CC(=O)O)CCN(CC(=O)O)CC2)CSSC[C@@H](C(=O)N[C@H](CO)[C@@H](C)O)NC1=O [[^177Lu]Lu-DOTATOC] [metal not drawn]', 90),
  ('CC(O)C1NC(=O)C(CCCCN)NC(=O)C(Cc2ccc(NC(N)=O)cc2)NC(=O)C(Cc2ccc(O)cc2)NC(=O)C(NC(=O)C(Cc2ccc(Cl)cc2)NC(=O)CN2CCN(CC(=O)O)CCN(CC(=O)O)CCN(CC(=O)O)CC2)CSSCC(C(=O)NC(Cc2ccc(O)cc2)C(N)=O)NC1=O (stereo not shown) [metal not drawn] ({DOTA}-[Phe(4-Cl)]CY[X1]KTCY-NH2; disulfide 2-7; configuration not given here)', 85),
  ('C[C@@H](O)[C@@H]1NC(=O)[C@H](CCCCN)NC(=O)[C@@H](Cc2ccc(NC(N)=O)cc2)NC(=O)[C@H](Cc2ccc(O)cc2)NC(=O)[C@H](NC(=O)[C@H](Cc2ccc(Cl)cc2)NC(=O)CN2CCN(CC(=O)O)CCN(CC(=O)O)CCN(CC(=O)O)CC2)CSSC[C@@H](C(=O)N[C@H](Cc2ccc(O)cc2)C(N)=O)NC1=O [metal not drawn] ({DOTA}-[Phe(4-Cl)][dC]Y[dPhe(4-NHCONH2)]KTC[dY]-NH2; disulfide 2-7)', 92),
  ('C[C@@H](O)[C@@H]1NC(=O)[C@H](CCCCN)NC(=O)[C@@H](Cc2c[nH]c3ccccc23)NC(=O)[C@H](Cc2ccc(O)cc2)NC(=O)[C@@H](NC(=O)[C@@H](Cc2ccccc2)NC(=O)CN2CCN(CC(=O)O)CCN(CC(=O)O)CCN(CC(=O)O)CC2)CSSC[C@@H](C(=O)N[C@H](CO)[C@@H](C)O)NC1=O [[^161Tb]Tb-DOTATOC] [metal not drawn]', 86);
